- study_target: human liver glycogen phosphorylase a (HLGPa) (Homo sapiens)
- Construct: creating a full-length cDNA fused at the 5′ end to codons for methionine-glycine-alanine-histidine; 6xHis tag (leader Met-Gly-Ala-His6-Gly-Gly) (N); made in house; host or cells: E. coli (bacterial expression plasmid pTXK1007LTev)
- Sequence (P06737 2-847 limits assumed): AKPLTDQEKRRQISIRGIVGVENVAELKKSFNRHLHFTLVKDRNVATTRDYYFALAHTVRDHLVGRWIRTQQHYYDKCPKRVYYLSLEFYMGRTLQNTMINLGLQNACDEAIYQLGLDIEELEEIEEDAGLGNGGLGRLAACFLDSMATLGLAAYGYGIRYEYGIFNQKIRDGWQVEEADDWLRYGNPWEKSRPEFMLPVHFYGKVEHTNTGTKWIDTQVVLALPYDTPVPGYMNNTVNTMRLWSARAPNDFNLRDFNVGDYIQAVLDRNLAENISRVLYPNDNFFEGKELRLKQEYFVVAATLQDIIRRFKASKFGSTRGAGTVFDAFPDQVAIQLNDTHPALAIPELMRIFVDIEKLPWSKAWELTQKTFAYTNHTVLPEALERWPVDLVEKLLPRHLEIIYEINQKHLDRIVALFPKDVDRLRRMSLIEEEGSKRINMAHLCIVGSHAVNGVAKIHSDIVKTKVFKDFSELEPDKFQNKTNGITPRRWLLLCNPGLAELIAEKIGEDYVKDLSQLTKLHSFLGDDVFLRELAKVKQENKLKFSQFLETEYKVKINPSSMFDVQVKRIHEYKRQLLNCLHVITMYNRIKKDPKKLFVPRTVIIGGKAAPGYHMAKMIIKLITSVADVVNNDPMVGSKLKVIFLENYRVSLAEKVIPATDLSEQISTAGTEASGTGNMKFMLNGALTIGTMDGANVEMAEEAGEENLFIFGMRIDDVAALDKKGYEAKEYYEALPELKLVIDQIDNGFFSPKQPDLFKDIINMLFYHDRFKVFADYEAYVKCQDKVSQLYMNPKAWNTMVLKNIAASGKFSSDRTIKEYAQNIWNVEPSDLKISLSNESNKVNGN
- procedure_text: Human liver glycogen phosphorylase a enzymatic activity assay (coupled, fluorescent resorufin readout, with and without 10 mM glucose)
- Assay type: biochemical
- experimental_context: human liver glycogen phosphorylase a enzymatic activity assay
property_measured: pIC50
Hey, just a heads up that pIC50 is the negative log base 10 of the concentration in molar.

Take a look at these entries with their results.
>>> measured_result("Cc1ccc(C(=O)N[C@H](C(=O)O)C2CCCCC2)c(NC(=O)Nc2c(C)cccc2C)c1 [Example 176]")
6.12
>>> measured_result("CCc1cccc(CC)c1NC(=O)Nc1cc(Cl)ccc1C(=O)N[C@H](Cc1ccccc1F)C(=O)O [Example 121]")
5.46
>>> measured_result("Cc1cccc(Cl)c1NC(=O)Nc1cc2ccccc2cc1C(=O)NC(C(=O)O)c1ccccc1 (centres unmarked) [Example 123]")
6.57
>>> measured_result("O=C(Nc1ccccc1Cl)Nc1cc2ccccc2cc1C(=O)N[C@@H](Cc1ccccc1)C(=O)O [Example 57]")
5.28
>>> measured_result("O=C(Nc1cc2ccccc2cc1C(=O)Nc1cscc1C(=O)O)Nc1c(Cl)cccc1Cl [Example 497]")
4.75

Req: Value lookup for pIC50; key = Cc1cccc(C)c1NC(=O)Nc1cc2ccccc2cc1C(=O)N[C@@H](CCC(=O)O)C(=O)O [Example 48]
Resp: 5.76

Req: Value lookup for pIC50; key = O=C(Nc1cc2ccccc2cc1C(=O)NC(C(=O)O)C1CCOCC1)Nc1c(Cl)cc(OC(F)(F)F)cc1Cl (centres unmarked) [Example 468]
Resp: 7.82

Req: Value lookup for pIC50; key = O=C(Nc1cc2ccccc2cc1C(=O)N[C@@H](CC1CCCCC1)C(=O)O)Nc1c(Cl)cccc1Cl [Example 146]
Resp: 6.27
